fold change of affinity listing for selected binders.
target_of_assay: T1, Human CD3eg linker (human)
T1 construct: Single chain: epsilon and gamma subunits of human CD3 joined by a 29-mer linker, Flag-tag at the C-terminus; also called recombinant human CD3
T1 chain: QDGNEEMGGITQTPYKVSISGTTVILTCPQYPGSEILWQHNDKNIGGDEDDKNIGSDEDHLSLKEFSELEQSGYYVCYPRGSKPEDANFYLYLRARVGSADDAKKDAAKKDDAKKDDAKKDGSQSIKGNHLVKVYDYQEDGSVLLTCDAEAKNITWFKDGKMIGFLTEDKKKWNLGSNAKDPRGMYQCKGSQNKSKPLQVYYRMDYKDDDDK
measurement_notes: Biacore SPR, vs template H183/L072

binder	fold change of affinity (fold)
H183/L072 VH G26R (antibody, name in Kabat numbering, V domains shown) VH: QVQLVESGGGLVQPGRSLRLSCAASRFTFSNAWMHWVRQAPGKGLEWVAQIKDKGNAYAAYYAPSVKGRFTISRDDSKNSIYLQMNSLKTEDTAVYYCHYVHYASASTVLPAFGVDAWGQGTTVTVSS VL: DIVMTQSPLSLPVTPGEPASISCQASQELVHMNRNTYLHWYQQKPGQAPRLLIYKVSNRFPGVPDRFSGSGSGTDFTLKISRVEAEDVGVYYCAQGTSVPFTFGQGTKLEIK	0.5
H183/L072 VH T28P (antibody, name in Kabat numbering, V domains shown) VH: QVQLVESGGGLVQPGRSLRLSCAASGFPFSNAWMHWVRQAPGKGLEWVAQIKDKGNAYAAYYAPSVKGRFTISRDDSKNSIYLQMNSLKTEDTAVYYCHYVHYASASTVLPAFGVDAWGQGTTVTVSS VL: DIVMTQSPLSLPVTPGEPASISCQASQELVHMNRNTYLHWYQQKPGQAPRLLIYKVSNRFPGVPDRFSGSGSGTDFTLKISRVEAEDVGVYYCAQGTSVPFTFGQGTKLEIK	0.7
H183/L072 VH S99I (antibody, name in Kabat numbering, V domains shown) VH: QVQLVESGGGLVQPGRSLRLSCAASGFTFSNAWMHWVRQAPGKGLEWVAQIKDKGNAYAAYYAPSVKGRFTISRDDSKNSIYLQMNSLKTEDTAVYYCHYVHYAIASTVLPAFGVDAWGQGTTVTVSS VL: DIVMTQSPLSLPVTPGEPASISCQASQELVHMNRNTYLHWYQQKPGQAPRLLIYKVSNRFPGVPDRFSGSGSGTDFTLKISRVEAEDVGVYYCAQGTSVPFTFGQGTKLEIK	0.7
